STUDY_TARGET: Recombinant human Bcl-xL with a 25 amino acid truncation of its C-terminus (human) (UniProt Q07817)
Sequence (Q07817 1-208): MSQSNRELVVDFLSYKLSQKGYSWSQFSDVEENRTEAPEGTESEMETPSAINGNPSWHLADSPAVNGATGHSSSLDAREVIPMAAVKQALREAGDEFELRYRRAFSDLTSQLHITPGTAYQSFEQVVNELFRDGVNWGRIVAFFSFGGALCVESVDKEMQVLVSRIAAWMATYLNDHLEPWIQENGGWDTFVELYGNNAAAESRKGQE
ASSAY_REMARKS: competition phage ELISA
Fold/wt by entry:
Report the value in fold with no unit label.

1) QEDAIRNIARHLAQVGDSMDRSIPPG [Bid BH3 I4A, phage-displayed]: 3
2) PSSTMGQVGAQLAIIGDDINRRYDSE [Bak BH3 R10A, phage-displayed]: 3
3) NLWAAQRYGRELRAMSDEFVDSFKKG [Bad BH3 R14A, phage-displayed]: 2
4) QEDIIRNIARHLAQVGDSMDRSIAPG [Bid BH3 P24A, phage-displayed]: 1

# next binder below
Notebook: PSSTMGQVGRQLAIIGDDINRRYDSA [Bak BH3 E26A, phage-displayed] , Fold/wt read as 1

All values here come from patent US20090048164A1.
